- System: UACC-257
- assay.text: NCI tumour cell line growth inhibition, 48 h
Activity calls are given as the source filed them. Rule as the data show it: active = GI50 up to about 1.1 µM and inactive = higher.
For each entry below, report its GI50 value.

Field: GI50. Fill in for each record below.
1. C=CCNC(=O)N(CCCCC(NC(C)=O)C(=O)NCc1ccccc1)Cc1ccccc1 (configuration not stated)
2. O=[N+]([O-])c1ccc2c(Nc3ccccc3-c3ccccc3Nc3c4ccccc4nc4cc([N+](=O)[O-])ccc34)c3ccccc3nc2c1
3. O=C(Cc1ccc(Cl)cc1)Nc1ccc2oc(-c3ccccc3)nc2c1

**Result**
["> 100 µM (inactive)", "8.05 µM (inactive)", "> 100 µM (inactive)"]

====

- Test system: OVCAR-5
- assay.text: NCI tumour cell line growth inhibition, 48 h
The source made the active and inactive calls. Rule as the data show it: active = GI50 up to about 1.1 µM and inactive = higher.
Pick from active, inactive when you respond.

The following molecules have reported results that may help.
[
  {
    "molecule": "O=Cc1ccc2c(c1)CC1(C2)Cc2ccc(C=O)cc2C1",
    "subject.of.test": "OVCAR-5",
    "group": "inactive"
  },
  {
    "molecule": "COc1cc(Br)cc2nc(-c3cccs3)oc12",
    "subject.of.test": "OVCAR-5",
    "group": "inactive"
  },
  {
    "molecule": "NC(=S)N/N=C(\\CC1OC(=O)c2ccccc21)c1ccc(Cl)cc1 (stereo not given)",
    "subject.of.test": "OVCAR-5",
    "group": "inactive"
  },
  {
    "molecule": "CCOC(=O)C(NNS(=O)(=O)c1ccc(C)cc1)S(=O)(=O)C(F)(F)C(F)(F)C(F)(F)C(F)(F)F (stereo not given)",
    "subject.of.test": "OVCAR-5",
    "group": "inactive"
  },
  {
    "molecule": "CC1(C)CC(=O)C(CC(C(=O)C(=O)Nc2cc(C(F)(F)F)ccc2Cl)C(=O)c2ccco2)C(=O)C1 (stereo not given)",
    "subject.of.test": "OVCAR-5",
    "group": "inactive"
  },
  {
    "molecule": "C[n+]1cn(C2=C([N-]S(=O)(=O)c3ccccc3)C(=O)c3ccccc3C2=O)c2ccccc21",
    "subject.of.test": "OVCAR-5",
    "group": "inactive"
  },
  {
    "molecule": "CC1(C)OC(C(C)(C)O)C(C(C)(C)O)O1 (stereo not given)",
    "subject.of.test": "OVCAR-5",
    "group": "inactive"
  },
  {
    "molecule": "CCN(C(=N)C#N)c1ccccc1",
    "subject.of.test": "OVCAR-5",
    "group": "inactive"
  },
  {
    "molecule": "Cc1oc2c(C)c3oc(=O)cc(C)c3cc2c1CN1C(=O)C2OCCOCCOCCOCCOCCO[C@H]2C1=O (stereo not given in full)",
    "subject.of.test": "OVCAR-5",
    "group": "inactive"
  },
  {
    "molecule": "Clc1cc(Cl)cc(C2ON=C(c3ccccc3)N2C23CC4CC(CC(C4)C2)C3)c1 (stereo not given)",
    "subject.of.test": "OVCAR-5",
    "group": "inactive"
  }
]

Shift focus to the following entry.
**Query** Please state the recorded outcome for this molecule: O=C1c2ccccc2OCC1/C=N/O (stereo not given)
**Result** inactive

====

- System: SNB-19
- assay.text: NCI tumour cell line growth inhibition, 48 h
Active and inactive are the calls of the source. No stated cut-off is given here; in the data, active = GI50 up to about 1.1 µM and inactive = higher.
metric: GI50

[
  {
    "compound": "CC1CC[C@@]2(OC1)O[C@H]1[C@H](O)[C@H]3[C@@H]4CC[C@H]5C[C@@H](OC6OC(CO)C(OC7OC(CO)C(O)C(OC8OCC(O)C(O)C8O)C7OC7OC(CO)C(O)C(O)C7OC7OC(CO)C(O)C(O)C7O)C(O)C6O)[C@H](O)C[C@]5(C)[C@H]4CC[C@]3(C)[C@H]1[C@@H]2C (some centres undefined)",
    "reading": "9.35 µM (inactive)"
  },
  {
    "compound": "CCn1c(-c2ccc(/N=N/Nc3ccc(-c4n[nH]c(=S)n4CC)cc3)cc2)n[nH]c1=S",
    "reading": "2.55 µM (inactive)"
  }
]

Field: GI50. Fill in for each record below.
1. COC1OC(=O)C(OC)C(OC)C1OC (centres undefined)
2. CC(C)(C)C1(c2ccc(C3(c4ccccc4)Oc4ccccc4S3)[nH]2)Oc2ccccc2S1 (centres undefined)

**Result**
1. > 100 µM (inactive)
2. > 100 µM (inactive)
